Origin of values: patent EP4768499A1

Test system: Caco-2 cells
Test: Membrane permeability test using Caco-2 cells with preincubation
Type: in vitro ADME
Conditions: Caco-2 cells, preincubation 20 to 24 hours; apical FaSSIF/HBSS 1% DMSO pH 6.0, basal HBSS 4% BSA pH 7.4; basal sample at 180 minutes
Positions of bridges follow the written chain, without caps; N, C: chain ends. Non-standard residues stand in square brackets, D forms with d. Residues, ends and D or L forms follow the SMILES beside them. *: point of attachment. NMeF = CN[C@@H](Cc1ccccc1)C(=O)O; NMeD = CN[C@@H](CC(=O)O)C(=O)O; NMeL = CN[C@@H](CC(C)C)C(=O)O; NMeV = CN[C@H](C(=O)O)C(C)C; NMeA = CN[C@@H](C)C(=O)O; Piperidide = C1CCN(*)CC1; Sar = CNCC(=O)O; tBu = CC(C)(C)*
Observable: Caco2 Papp (10^-6 cm/sec)

Quick one: Caco2 Papp (10^-6 cm/sec) for CC(C)C[C@@H]1NC(=O)[C@H](CC(C)C)N(C)C(=O)[C@H]([C@@H](C)O)NC(=O)[C@H](C(C)C)N(C)C(=O)[C@H](Cc2ccccc2)N(C)C(=O)[C@@H](C(C)C)NC(=O)C[C@@H](C(=O)N2CCCCC2)N(C)C(=O)[C@H](C)N(C)C(=O)[C@H](Cc2ccccc2)N(C)C(=O)[C@H](C)NC(=O)[C@H](COC(C)(C)C)NC(=O)[C@H](CC(C)C)N(C)C(=O)CN(C)C1=O [pd158] ([dV][NMeF][NMeV]T[NMeL]L[Sar][NMeL]S(tBu)A[NMeF][NMeA][NMeD]-Piperidide; lactam N-13) ?
0.44 10^-6 cm/sec

* * *

Give measured microsomal CLint at 1 µM for each item. Keep answers brief.
Experiment: Metabolic stability test: liver microsomal stability assay
Assay type: in vitro ADME, mouse
Conditions: male, pH 7.4; mouse liver microsomes 0.5 mg protein/mL, compound 1 µM, presence of NADPH; read-out: Mouse Hepatic Microsome CLh,int NADPH(+)
Starred links: 1 amine or outer side, 2 acyl side, 3 side chain; linkers in the order of their positions; H or OH if unused. Positions of bridges follow the written chain, without caps; N, C: chain ends. Non-standard residues stand in square brackets, D forms with d. Residues, ends and D or L forms follow the SMILES beside them. *: point of attachment. NMeF = CN[C@@H](Cc1ccccc1)C(=O)O; NMeGABA = CN(CCCC(=O)[*:2])[*:1]; NMeβAla = CN(CCC(=O)[*:2])[*:1]; NMeD = CN[C@@H](CC(=O)O)C(=O)O; NMeL = CN[C@@H](CC(C)C)C(=O)O; NMeV = CN[C@H](C(=O)O)C(C)C; NMeAbu = CC[C@H](NC)C(=O)O; NMeA = CN[C@@H](C)C(=O)O; Piperidide = C1CCN(*)CC1; Sar = CNCC(=O)O; tBu = CC(C)(C)*
Param answer (str): number followed by unit.

Compound	microsomal CLint at 1 µM
CC(C)C[C@@H]1NC(=O)[C@H](CC(C)C)N(C)C(=O)[C@H]([C@@H](C)O)NC(=O)[C@H](C(C)C)N(C)C(=O)[C@H](Cc2ccccc2)N(C)C(=O)[C@@H](C(C)C)NC(=O)C[C@@H](C(=O)N2CCCCC2)N(C)C(=O)[C@H](C)N(C)C(=O)[C@H](Cc2ccccc2)N(C)C(=O)[C@H](C)NC(=O)[C@H](COC(C)(C)C)NC(=O)[C@H](CC(C)C)N(C)C(=O)[C@H](C(C)C)NC(=O)CN(C)C1=O [pd086] ([dV][NMeF][NMeV]T[NMeL]L[Sar]V[NMeL]S(tBu)A[NMeF][NMeA][NMeD]-Piperidide; lactam N-14)	20.1 µL/min/mg

Below: the item to evaluate.
Quick one: microsomal CLint at 1 µM for CC[C@H](C)[C@@H]1NC(=O)[C@H](C)NC(=O)[C@H](CC(C)C)N(C)C(=O)[C@H](COC(C)(C)C)NC(=O)[C@H](CC(C)C)N(C)C(=O)[C@@H]2CCCN2C(=O)[C@H](Cc2ccccc2)NC(=O)CCN(C)C(=O)[C@H](CC(C)C)N(C)C(=O)CCCN(C)C(=O)C[C@@H](C(=O)N2CCCCC2)NC(=O)[C@H](Cc2ccccc2)N(C)C(=O)[C@H](CC(C)C)NC(=O)[C@H](CC)N(C)C1=O [pd017] ([NMeGABA][NMeL][NMeβAla]FP[NMeL]S(tBu)[NMeL]AI[NMeAbu]L[NMeF]D-Piperidide; lactam N-14) ?
39.4 µL/min/mg
